B1: Glutamate dehydrogenase, P96110 (parent)
chain: MPEKSLYEMAVEQFNRAASLMDLESDLAEVLRRPKRVLIVEFPVRMDDGHVEVFTGYRVQHNVARGPAKGGIRYHPDVTLDEVKALAFWMTWKTAVMNLPFGGGKGGVRVDPKKLSRNELERLSRRFFSEIQVIIGPYNDIPAPDVNTNADVMAWYMDTYSMNVGHTVLGIVTGKPVELGGSKGREEATGRGVKVCAGLAMDVLGIDPKKATVAVQGFGNVGQFAALLISQELGSKVVAVSDSRGGIYNPEGFDVEELIRYKKEHGTVVTYPKGERITNEELLELDVDILVPAALEGAIHAGNAERIKAKAVVEGANGPTTPEADEILSRRGILVVPDILANAGGVTVSYFEWVQDLQSFFWDLDQVRNALEKMMKGAFNDVMKVKEKYNVDMRTAAYILAIDRVAYATKKRGIYP

Variants of: B1
Conditions: Thermotoga maritima (strain ATCC 43589 / DSM 3109 / JCM 10099 / NBRC 100826 / MSB8); pH 7.4; Thermal; DSC; Sodium phosphate 20 mM; reversible: no; structure 1B26; whole UniProt chain shown
Give Tm for every item shown.
Field: numeric (°C). Do not append units.

Query string: Quick check: Tm of S129R T159E N118R ?
Result string: 89.6

Query string: Quick check: Tm of N118R ?
Result string: 88.7

Query string: Quick check: Tm of S129R T159E N118R S161E ?
Result string: 88.3

Query string: Quick check: Tm of S129R T159E S161E ?
Result string: 88

Query string: Quick check: Tm of S129R ?
Result string: 87

Query string: Quick check: Tm of T159E ?
Result string: 83.1
